- studySystem: AR (Homo sapiens, UniProt P10275, T878A)
- Construct: into the androgen-dependent PCa cells (LNCaP); endogenous in cells; host or cells: LNCaP-ARR2PB-eGFP
- assayOverview: AR transcriptional activity, LNCaP-ARR2PB-eGFP reporter cells
- Type: cell-based
- protocolConditions: read-out: IC50 AR transcriptional activities
measuredParameter: log10 IC50 (log10 of the value in µM)
Base-10 log of IC50, unit µM.

A selection of reference data follows.
| compound | studySystem | log10 IC50 |
| --- | --- | --- |
| CN1CCN(Cc2nsc(NC(=O)c3csc(-c4cccc(OC(F)F)c4)c3)n2)CC1 | AR (Homo sapiens, UniProt P10275, T878A) | 1.37 |
| COc1cccc(-c2coc(C(=O)Nc3nc(CC(C)N4CCOCC4)ns3)c2)c1 (stereo not drawn) | AR (Homo sapiens, UniProt P10275, T878A) | 1.28 |
| CC(Cc1nsc(NC(=O)c2cc(-c3cccc(OC(F)F)c3)co2)n1)N1CCN(C)CC1 (stereo not drawn) | AR (Homo sapiens, UniProt P10275, T878A) | 1.18 |
| CC(=O)Cc1nsc(NC(=O)c2coc(-c3cccc(OC(F)F)c3)c2)n1 | AR (Homo sapiens, UniProt P10275, T878A) | 1.29 |
| Cc1oc(C(=O)Nc2nc(CN3CCCCC3)ns2)cc1-c1cccc(C#N)c1 | AR (Homo sapiens, UniProt P10275, T878A) | 1.19 |

Now turn to the next compound.
[Q] For the compound shown here, Cc1oc(-c2cccc(OC(F)(F)F)c2)cc1C(=O)Nc1nc(CC(C)N(C)C)ns1 (stereo not drawn) , give the reported log10 IC50.
[A] -1.22

###

- studySystem: AR (Homo sapiens, UniProt P10275, T878A)
- Construct: into the androgen-dependent PCa cells (LNCaP); endogenous in cells; host or cells: LNCaP-ARR2PB-eGFP
- Sequence (P10275 1-920 T878A): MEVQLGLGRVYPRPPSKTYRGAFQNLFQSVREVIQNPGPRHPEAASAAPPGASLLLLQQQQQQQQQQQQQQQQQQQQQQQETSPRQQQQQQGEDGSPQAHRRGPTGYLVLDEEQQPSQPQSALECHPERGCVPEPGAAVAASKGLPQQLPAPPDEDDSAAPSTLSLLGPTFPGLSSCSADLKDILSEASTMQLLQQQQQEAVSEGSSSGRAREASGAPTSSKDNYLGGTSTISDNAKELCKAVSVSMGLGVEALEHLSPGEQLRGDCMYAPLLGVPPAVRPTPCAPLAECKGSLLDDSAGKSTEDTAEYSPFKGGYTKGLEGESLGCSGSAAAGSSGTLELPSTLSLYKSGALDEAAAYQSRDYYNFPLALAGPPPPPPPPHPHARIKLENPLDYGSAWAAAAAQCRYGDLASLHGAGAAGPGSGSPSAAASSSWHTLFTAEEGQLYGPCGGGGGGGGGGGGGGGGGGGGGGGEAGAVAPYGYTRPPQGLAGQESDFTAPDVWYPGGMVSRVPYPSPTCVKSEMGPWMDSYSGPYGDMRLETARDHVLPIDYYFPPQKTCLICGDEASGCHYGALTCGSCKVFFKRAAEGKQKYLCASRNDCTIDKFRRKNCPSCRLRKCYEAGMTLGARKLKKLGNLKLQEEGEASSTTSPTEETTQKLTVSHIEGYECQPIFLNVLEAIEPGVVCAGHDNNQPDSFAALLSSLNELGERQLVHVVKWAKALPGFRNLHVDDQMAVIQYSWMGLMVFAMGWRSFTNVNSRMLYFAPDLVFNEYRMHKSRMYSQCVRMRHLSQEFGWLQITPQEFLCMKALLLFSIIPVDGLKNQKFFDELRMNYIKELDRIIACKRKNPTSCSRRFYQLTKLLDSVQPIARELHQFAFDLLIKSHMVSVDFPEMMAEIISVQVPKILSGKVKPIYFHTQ
- assayOverview: AR transcriptional activity, LNCaP-ARR2PB-eGFP reporter cells
- Format: cell-based
- protocolConditions: read-out: IC50 AR transcriptional activities
We begin with a simple list: items and their reported IC50.
Write the value in µM as a bare number.

| compound | uom | IC50 |
| --- | --- | --- |
| Cc1oc(-c2cccc(C#N)c2)cc1C(=O)Nc1nc(CC(C)N2CCCC2)ns1 (stereo not drawn) | µM | 0.41 |
| Cc1oc(-c2cccc(C(F)(F)F)c2)cc1C(=O)Nc1nc(CN2CCCC2)ns1 | µM | 0.84 |
| Cc1sc(-c2cccc(OC(F)F)c2)cc1C(=O)Nc1nc(CN2CCN(C)CC2)ns1 | µM | 9.79 |
| O=C(Nc1nc(CN2CCCC2)ns1)c1csc(-c2cccc(OC(F)(F)F)c2)c1 | µM | 27.3 |
| CC(O)Cc1nsc(NC(=O)c2cc(-c3cccc(C(F)(F)F)c3)co2)n1 (stereo not drawn) | µM | 29.3 |
| CC(=O)Cc1nsc(NC(=O)c2cc(-c3cccc([N+](=O)[O-])c3)oc2C)n1 | µM | 0.04 |

[Q] Can you look up the measured IC50 of CN1CCN(Cc2nsc(NC(=O)c3coc(-c4cccc(OC(F)F)c4)c3)n2)CC1 for me?
[A] 32.6

[Q] Field request: IC50 | item: COc1cccc(-c2cc(C(=O)Nc3nc(CC(C)=O)ns3)oc2C)c1
[A] 22.4

[Q] Give the measured IC50 of Cc1oc(C(=O)Nc2nc(CCl)ns2)cc1-c1cccc(C(F)(F)F)c1 .
[A] 19.1

[Q] What value of IC50 has been reported for the following compound? CC(Cc1nsc(NC(=O)c2cc(-c3cccc(C#N)c3)co2)n1)N1CCCCC1 (stereo not drawn)
[A] 23.2

[Q] Entry Cc1sc(-c2cccc(C(F)(F)F)c2)cc1C(=O)Nc1nc(CCl)ns1 : reported IC50 = ?
[A] 12.3

[Q] Please look up its IC50: CC(O)Cc1nsc(NC(=O)c2csc(-c3cccc(C(F)(F)F)c3)c2)n1 (stereo not drawn)
[A] 18.1

###

- studySystem: AR (Homo sapiens, UniProt P10275, T878A)
- Construct: into the androgen-dependent PCa cells (LNCaP); endogenous in cells; host or cells: LNCaP-ARR2PB-eGFP
- assayOverview: AR transcriptional activity, LNCaP-ARR2PB-eGFP reporter cells
- Assay type: cell-based
- protocolConditions: read-out: IC50 AR transcriptional activities
measuredParameter: pIC50
Kindly note that pIC50 refers to -log10 of the concentration in mol/L and answer with the value alone.

| querySmiles | studySystem | pIC50 |
| --- | --- | --- |
| CCN(CC)Cc1nsc(NC(=O)c2cc(-c3cccc(OC(F)(F)F)c3)oc2C)n1 | AR (Homo sapiens, UniProt P10275, T878A) | 6.23 |

[Q] Please give the measured pIC50 for this compound: [2H]c1c(-c2cccc(C(F)(F)F)c2)oc(C)c1C(=O)Nc1nc(CC(C)=O)ns1
[A] 7.40

[Q] Any idea what its pIC50 is? The compound is CC(Cc1nsc(NC(=O)c2cc(-c3cccc(C(F)(F)F)c3)sc2C)n1)=C(F)F
[A] 4.89

###

- studySystem: AR (Homo sapiens, UniProt P10275, T878A)
- Construct: into the androgen-dependent PCa cells (LNCaP); endogenous in cells; host or cells: LNCaP-ARR2PB-eGFP
- assayOverview: AR transcriptional activity, LNCaP-ARR2PB-eGFP reporter cells
- Format: cell-based
- protocolConditions: read-out: IC50 AR transcriptional activities
# label = Satisfied if IC50 < 10 µM else Not satisfied

Some solved cases for reference:
| compound | qualitativeLabel |
| --- | --- |
| CC(=O)Cc1nsc(NC(=O)c2cc(-c3cccc(C#N)c3)oc2C)n1 [Compound A-3] | Satisfied |
| COc1cccc(-c2cc(C(=O)Nc3nc(CC(C)=O)ns3)co2)c1 [Compound B-3] | Not satisfied |
| [2H]c1c(-c2cccc(OC(F)(F)F)c2)oc(C)c1C(=O)Nc1nc(CC(C)=O)ns1 [Compound A-36] | Satisfied |
| CC(F)(F)Cc1nsc(NC(=O)c2coc(-c3cccc(C(F)(F)F)c3)c2)n1 [Compound B-35] | Not satisfied |
| CO/N=C(\C)Cc1nsc(NC(=O)c2cc(-c3cccc(C(F)(F)F)c3)oc2C)n1 [Compound A-70] | Satisfied |
| CCN(CC)Cc1nsc(NC(=O)c2coc(-c3cccc(OC)c3)c2)n1 [Compound B-50] | Not satisfied |
| C/C(Cc1nsc(NC(=O)c2cc(-c3cccc(C(F)(F)F)c3)oc2C)n1)=N\O [Compound A-69] | Satisfied |
| Cc1oc(-c2cccc(C(F)(F)F)c2)cc1C(=O)Nc1nc(CC(C)(F)F)ns1 [Compound A-85] | Satisfied |

Field: next compound
[Q] In plain terms, does O=C(Nc1nc(CN2CCCC2)ns1)c1cc(-c2cccc(C(F)(F)F)c2)co1 [Compound G-24] come in under 10 µM for IC50?
[A] Not satisfied
